tested on: K4 kissing-loop RNA reporter; assay: apparent KD of K4 kissing-loop reporter; higher = weaker reporter binding; conditions: Eterna round: R107; input ligand: FMN 200 uM;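 also: bound reporter read as fluorescence of individual clusters on recovered sequencing chips by microscopy, with normalized cluster intensities fitted with a binding model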

sequence_record	apparent KD of K4 kissing-loop reporter, nM
CAAGGGCAAGUCGAUACCAGAGACACAUACCCGCAGUGAUGUUGCAGGAAACAGUUACUUCUCCCUUGGCAGCGAAUGCGACUUC [theeternabot_sameState_KL_Theo_B_45]	348
UGACUGGAUGGAAGGAGCGCUAAACUCCUAGUGAUGUUAGGGAUACGAGACAAAGUCUUGAGGCAGGUAGGUCGCCAUCUAGUCU [FiskerMod 11 - Jieux - Same State - Arginine B]	162
GUAGGCUACCGAGGAUAUAGUCCAACGGAGUGAUGUUCCGUCUUUCUUCAUCAUUAACGUUGUGAUCUAGAAGGCGGUAGCCUAC	120

Data provenance is the supplement of paper PMC9170038.
